Target: pERK1/2 (Thr202/Tyr204), PANC-1 (KRAS G121D) (Homo sapiens, UniProt P01116, G12D)
Construct: pERK1/2 HTRF read-out
Sequence (P01116 1-188 isoform P01116-2 G12D): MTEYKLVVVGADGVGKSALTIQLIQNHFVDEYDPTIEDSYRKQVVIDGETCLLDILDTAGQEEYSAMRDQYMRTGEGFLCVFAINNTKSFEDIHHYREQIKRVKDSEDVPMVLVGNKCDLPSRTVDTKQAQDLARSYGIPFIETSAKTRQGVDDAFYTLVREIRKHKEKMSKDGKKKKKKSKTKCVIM
Experiment Description: Assay of intracellular pERK1/2 (Thr202/Tyr204) phosphorylation in PANC-1 cells (KRAS G12D)
Type: cell-based
Condition Summary: pERK1/2, 2 days, read-out: PANC-1 (KRAS G12D) IC50
molecules and their reported IC50
Give a bare numeral; the unit nM is implied.

Under pERK1/2 (Thr202/Tyr204), PANC-1 (KRAS G121D) (Homo sapiens, UniProt P01116, G12D): IC50 value of [2H]C1([2H])CC[C@@]2(COc3nc4c5c(nc(-c6cc(N)c(F)c(C)c6C(F)(F)F)c(F)c5n3)OCCN4C(C)c3cccnc3N)C[C@@]([2H])(F)CN12 (stereo partly drawn) ?
1

Here is the next molecule: [2H]C1([2H])CC[C@@]2(C([2H])([2H])Oc3nc4c5c(nc(-c6cc(N)c(F)c(C)c6C(F)(F)F)c(F)c5n3)OCCN4C(C)c3cccnc3N)C[C@@H](F)CN12 (single isomer, unassigned) [Compound 124]
1

Here is the next molecule: CC(c1cccnc1N)N1CCOc2nc(-c3cc(O)cc4ccc(F)c(F)c34)c(F)c3nc(OC[C@@H]4CCN4CC(F)F)nc1c23 (stereo partly drawn)
113

Here is the next molecule: [2H]C1([2H])CN(C(C)c2cccnc2N)c2nc(OC[C@@]34CCCN3C[C@H](F)C4)nc3c(F)c(-c4cc(N)c(F)c(C)c4C(F)(F)F)nc(c23)O1 (stereo partly drawn) [Compound 157]
2

* * *

molecules and their reported pIC50
Target: pERK1/2 (Thr202/Tyr204), NCI-1H441 (KRAS G12V) (Homo sapiens, UniProt P01116, G12V)
Construct: pERK1/2 HTRF read-out
Sequence (P01116 1-188 isoform P01116-2 G12V): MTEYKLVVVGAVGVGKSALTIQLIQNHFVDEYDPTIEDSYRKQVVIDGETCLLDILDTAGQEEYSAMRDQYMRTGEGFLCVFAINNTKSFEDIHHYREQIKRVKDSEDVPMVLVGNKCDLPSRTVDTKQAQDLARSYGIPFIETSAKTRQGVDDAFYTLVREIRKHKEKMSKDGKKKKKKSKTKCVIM
Experiment Description: Assay of intracellular pERK1/2 (Thr202/Tyr204) phosphorylation in NCI-H441 cells (KRAS G12V)
Assay type: cell-based
Condition Summary: pERK1/2, 2 days, read-out: NCI-H441 (KRAS G12V) IC50
Entry type: numeric. Quantity: pIC50, the -log10 of concentration in molar units.

Molecule	pIC50
[2H]C1([2H])Oc2nc(-c3cc(N)c(F)c(C)c3C(F)(F)F)c(F)c3nc(OC[C@@]45CCCN4C[C@H](F)C5)nc(c23)N(C(C)c2cccnc2N)C1([2H])[2H] (single isomer, unassigned) [Compound 199]	9.70

// next item, pIC50 requested
Need pIC50 of [2H]C1([2H])CC[C@@]2(COc3nc4c5c(nc(-c6cc(N)c(F)c(Cl)c6C(F)(F)F)c(F)c5n3)OC([2H])([2H])C([2H])([2H])N4[C@H](C)c3cccnc3N)C[C@@H](F)CN12 (single isomer, unassigned) [Compound 222] , thanks.
9.40

* * *

Target: pERK1/2 (Thr202/Tyr204), NCI-1H358 (KRAS G12C) (Homo sapiens, UniProt P01116, G12C)
Construct: pERK1/2 HTRF read-out
Sequence (P01116 1-188 isoform P01116-2 G12C): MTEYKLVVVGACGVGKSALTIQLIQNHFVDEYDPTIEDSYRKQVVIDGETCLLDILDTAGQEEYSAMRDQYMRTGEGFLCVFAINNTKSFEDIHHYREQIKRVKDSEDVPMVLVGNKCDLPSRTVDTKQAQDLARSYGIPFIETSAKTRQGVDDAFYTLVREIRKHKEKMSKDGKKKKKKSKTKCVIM
Experiment Description: Assay of intracellular pERK1/2 (Thr202/Tyr204) phosphorylation in NCI-H358 cells (KRAS G12C)
Format: cell-based
Condition Summary: pERK1/2, 2 days, read-out: NCI-H358 (KRAS G12C) IC50
Property Label: IC50 (nM)
Give a bare numeral; the unit nM is implied.

Need IC50 of Cc1cc(N)cc(-c2nc3c4c(nc(OC[C@@]56CCCN5C[C@H](F)C6)nc4c2F)N(C(C)c2cccnc2N)CCO3)c1C1CC1 (stereo partly drawn) , thanks.
0.8

Here is the next compound: [2H]C([2H])(Oc1nc2c3c(nc(-c4cc(N)ccc4C(F)(F)F)c(F)c3n1)OCCN2C(C)c1cccnc1N)[C@@H]1C[C@@H](F)CN1C([2H])([2H])[2H] (stereo partly drawn)
7

* * *

Target: pERK1/2 (Thr202/Tyr204), NCI-1H441 (KRAS G12V) (Homo sapiens, UniProt P01116, G12V)
Construct: pERK1/2 HTRF read-out
Experiment Description: Assay of intracellular pERK1/2 (Thr202/Tyr204) phosphorylation in NCI-H441 cells (KRAS G12V)
Type: cell-based
Condition Summary: pERK1/2, 2 days, read-out: NCI-H441 (KRAS G12V) IC50
compounds and their reported pIC50
Entry type: numeric. Quantity: pIC50, the -log10 of concentration in molar units.

Consider the reported pIC50 for these compounds:
Compound	pIC50
Cc1c(C(F)(F)F)c(-c2nc3c4c(nc(OC[C@@]56CCCN5C[C@H](F)C6)nc4c2F)N(C(C)c2cccnc2N)[C@@H](C)CO3)c2cn[nH]c2c1F (stereo partly drawn)	9.52
CCC(c1cccnc1N)N1CCOc2nc(-c3cc(N)c(F)c(C)c3C(F)(F)F)c(F)c3nc(OC[C@@]45CCCN4C[C@H](F)C5)nc1c23 (single isomer, unassigned)	9.22
[2H]C1([2H])CC[C@@]2(COc3nc4c5c(nc(-c6cc(N)c(F)c(Cl)c6C(F)(F)F)c(F)c5n3)OC([2H])([2H])C([2H])([2H])N4C(C)c3cccnc3N)C[C@@H](F)CN12 (single isomer, unassigned)	8.15
CC(c1cccnc1N)N1CCOc2nc(-c3cc(N)cc(Cl)c3C3CC3)c(F)c3nc(OC[C@@]45CCCN4C[C@H](F)C5)nc1c23 (single isomer, unassigned) [Compound 75]	7.96
CCOc1nc2c3c(nc(-c4cc(O)cc5ccc(F)c(F)c45)c(F)c3n1)OCCN2C(C)c1cccnc1N (stereo not drawn)	6.10

Need pIC50 of CCC(c1cccnc1N)N1CCOc2nc(-c3cc(N)c(F)c(Cl)c3C(F)(F)F)c(F)c3nc(OC[C@@]45CCCN4C[C@H](F)C5)nc1c23 (single isomer, unassigned) [Compound 214] , thanks.
9.52

Here is the next compound: Cc1cc(N)cc(-c2nc3c4c(nc(OCC56CCCN5CCC6)nc4c2F)N(C(C)c2cccnc2N)CCO3)c1C(F)(F)F (stereo not drawn)
8.22

Here is the next compound: C#Cc1ccc2[nH]ncc2c1-c1nc2c3c(nc(OC[C@@]45CCCN4C[C@H](F)C5)nc3c1F)N(C(C)c1cccnc1N)CCO2 (stereo partly drawn)
6.09

Here is the next compound: CC(c1cccnc1N)N1c2nc(OC[C@@H]3C[C@@H](F)CN3C)nc3c(F)c(-c4cc(O)cc5ccc(F)c(F)c45)nc(c23)OC[C@@H]1C (stereo partly drawn)
9.30

Here is the next compound: Cc1c(F)c(N)cc(-c2nc3c4c(nc(OC[C@@]56CCCN5C[C@H](F)C6)nc4c2F)N(C(C)c2cccnc2N)CCO3)c1C(F)(F)F (single isomer, unassigned) [Compound 138]
7.77

Here is the next compound: CC(c1cccnc1N)N1CCOc2nc(-c3cc(O)cc(F)c3C3CC3)c(F)c3nc(OC[C@@H]4CCN4CC(F)F)nc1c23 (single isomer, unassigned) [Compound 24]
7.96

Here is the next compound: Cc1c(F)c(N)cc(-c2nc3c4c(nc(OC[C@@H]5C[C@@H](F)CN5C)nc4c2F)N(C(C)c2cccnc2N)CCO3)c1C(F)(F)F (stereo partly drawn)
9.00

Here is the next compound: CC(c1cccnc1N)N1c2nc(OC[C@@]34CCCN3C[C@H](F)C4)nc3c(F)c(-c4cc(O)cc(Cl)c4C4CC4)nc(c23)OC[C@@H]1C (stereo partly drawn)
9.30

Here is the next compound: Cc1cc(N)cc(-c2nc3c4c(nc(OCC5CCOCC5)nc4c2F)N(C(C)c2cccnc2N)CCO3)c1C(F)(F)F (single isomer, unassigned)
7.44

Here is the next compound: [2H]C([2H])(Oc1nc2c3c(nc(-c4cc(N)c(F)c(C)c4C(F)(F)F)c(F)c3n1)OCCN2C(C)c1cccnc1N)[C@@H]1C[C@@H](F)CN1C([2H])([2H])[2H] (stereo partly drawn)
9.05

Here is the next compound: Cc1c(F)c(N)cc(-c2nc3c4c(nc(OCC56CCCN5CC5(CC5)C6)nc4c2F)N(C(C)c2cccnc2N)CCO3)c1C(F)(F)F (stereo not drawn)
9.00

Here is the next compound: [2H]C1([2H])Oc2nc(-c3cc(N)c(F)c(C)c3C(F)(F)F)c(F)c3nc(OC[C@@H]4C[C@@H](F)CN4C)nc(c23)N(C(C)c2cccnc2N)C1([2H])[2H] (single isomer, unassigned) [Compound 202]
9.00

Here is the next compound: CC(c1cccnc1N)N1CCOc2nc(-c3cc(O)cc(F)c3C3CC3)c(F)c3nc(OC[C@@H]4CC(F)(F)CN4C)nc1c23 (single isomer, unassigned) [Compound 49]
7.66

* * *

compounds and their reported IC50
Target: pERK1/2 (Thr202/Tyr204), NCI-1H441 (KRAS G12V) (Homo sapiens, UniProt P01116, G12V)
Construct: pERK1/2 HTRF read-out
Experiment Description: Assay of intracellular pERK1/2 (Thr202/Tyr204) phosphorylation in NCI-H441 cells (KRAS G12V)
Type: cell-based
Condition Summary: pERK1/2, 2 days, read-out: NCI-H441 (KRAS G12V) IC50

Consider the reported IC50 for these compounds:
Compound	Measurement
Cc1cc2[nH]nc(C)c2c(-c2nc3c4c(nc(OC[C@@]56CCCN5C[C@H](F)C6)nc4c2F)N(C(C)c2cccnc2N)[C@@H](C)CO3)c1C(F)(F)F (stereo partly drawn) [Compound 377]	5 nM
CC(c1cccnc1N)N1c2nc(OC[C@@]34CCCN3C[C@H](F)C4)nc3c(F)c(-c4c(C5CC5)c(Cl)cc5[nH]ncc45)nc(c23)OC[C@@H]1C (stereo partly drawn)	0.9 nM
Cc1cc(N)cc(-c2nc3c4c(nc(OC[C@@H]5C[C@@H](F)CN5C)nc4c2F)N(C(C)c2cccnc2N)[C@@H](C)CO3)c1C(F)(F)F (single isomer, unassigned) [Compound 282]	0.4 nM
Cc1cc(N)cc(-c2nc3c4c(nc(OC[C@@]56CCCN5C[C@H](F)C6)nc4c2F)N(C(C)c2cccnc2N)CCO3)c1C(F)(F)F (stereo partly drawn) [Compound 59]	0.7 nM
Cc1cc(N)cc(-c2nc3c4c(nc(OC[C@H]5CCCN5CCF)nc4c2F)N(C(C)c2cccnc2N)CCO3)c1C(F)(F)F (single isomer, unassigned) [Compound 79]	> 100 nM

// next item, IC50 requested
Under pERK1/2 (Thr202/Tyr204), NCI-1H441 (KRAS G12V) (Homo sapiens, UniProt P01116, G12V): IC50 value of CC(c1cccnc1N)N1CCOc2nc(-c3cc(O)cc(Cl)c3C3CC3)c(F)c3nc(OC[C@@]45CCCN4C[C@H](F)C5)nc1c23 (stereo partly drawn) [Compound 4] ?
2 nM
